The measurements presented in this section are drawn from ChEMBL document CHEMBL3286371.

study_system: Delta-aminolevulinic acid dehydratase (Pseudomonas aeruginosa (strain ATCC 15692 / PAO1 / 1C / PRS 101 / LMG12228), UniProt Q59643)
Sequence (Q59643 whole entry): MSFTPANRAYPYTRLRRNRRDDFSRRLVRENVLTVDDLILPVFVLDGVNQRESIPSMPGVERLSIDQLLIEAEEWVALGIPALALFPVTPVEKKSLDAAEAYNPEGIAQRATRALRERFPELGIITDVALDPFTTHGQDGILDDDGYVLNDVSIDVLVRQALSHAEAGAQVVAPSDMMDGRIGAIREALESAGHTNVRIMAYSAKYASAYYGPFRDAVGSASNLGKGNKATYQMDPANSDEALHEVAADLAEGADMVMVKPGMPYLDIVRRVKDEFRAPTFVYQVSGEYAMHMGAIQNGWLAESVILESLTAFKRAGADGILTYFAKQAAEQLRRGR
assay_details: Inhibition of Pseudomonas aeruginosa PAO1 recombinant PBGS using 5-ALA as substrate
The molecules listed here are annotated with their IC50.
Kindly answer with a numeric value in µM, unit omitted.

Solved entries (count: 2):
# line_notation, IC50 / µM
records = [
    ("O=C(O)c1ccc2c(c1)nc(CCNC(=O)c1cccs1)n2Cc1cccc(C(F)(F)F)c1", 79),
    ("O=C(O)c1c2c(nc3ccccc13)CCN(C(=O)c1cccc(C(F)(F)F)c1)C2", 475),
]

Would you mind telling me what IC50 value was observed for O=C(O)c1ccc2c(c1)ncn2Cc1cccc(C(F)(F)F)c1 ?
94
